# System: RS4;11 leukaemia tumour line
# ASSAY PROCEDURE: In vitro cytotoxicity, Microculture Tetrazolium Assay (MTT)
# Type: cell-based
# CONDITIONS: Homo sapiens; RS4;11 cells, 48 hours exposure
# Procedure: The cytotoxicity studies were carried out on the RS4;11 leukaemia tumour line. The cells are distributed onto microplates and exposed to the test compounds for 48 hours. The cell viability is then quantified by a colorimetric assay, the Microculture Tetrazolium Assay (Cancer Res., 1987, 47, 939-942).
Where a name gives a salt, the structure may show the parent alone.
Attribute: log10 of IC50
ASSAY METRIC: log10 of IC50 (log10 of the value in nM)

[[record]]
compound = "Cc1cc(C(=O)N(c2ccccc2)c2ccc(O)cc2)cn1-c1cc(Br)ccc1C(=O)N1Cc2ccccc2C[C@H]1CN1CCN(C)CC1 [Example 22]"
experimental_value = 2.15

[[record]]
compound = "COc1cc(-n2cc(C(=O)N(c3ccc(O)cc3)C3CCCCC3)c3ccccc32)c(C(=O)N2Cc3ccccc3C[C@H]2CN2CCN(C)CC2)cc1O [Example 204, dihydrochloride]"
experimental_value = 2.89

[[record]]
compound = "O=C(c1cn(-c2cc(Cl)ccc2C(=O)N2Cc3ccccc3C[C@H]2CN2CCCCC2)c2ccccc12)N(c1ccccc1)c1ccc(O)cc1 [Example 171]"
experimental_value = 3.02

[[record]]
compound = "Cc1cc(C(=O)N(c2ccccc2)c2ccc(O)c(Cl)c2)cn1-c1cc(Cl)ccc1C(=O)N1Cc2ccccc2C[C@H]1CN1CCN(C)CC1 [Example 27, hydrochloride]"
experimental_value = 2.68

[[record]]
compound = "CN1CCN(C[C@@H]2Cc3ccccc3CN2C(=O)c2cc3c(cc2-n2cc(C(=O)N(c4ccc(O)cc4)c4cccc(Oc5ccccc5)c4)c4ccccc42)OCO3)CC1 [Example 39, hydrochloride]"
experimental_value = 2.42

[[record]]
compound = "Cc1cc(C(=O)N(c2ccccc2)c2ccc3[nH]ccc3c2)cn1-c1ccccc1C(=O)N1Cc2ccccc2C[C@H]1CN(C)C [Example 10]"
experimental_value = 3.35

[[record]]
compound = "Cc1ccc(N(C(=O)c2cn(-c3cc4c(cc3C(=O)N3Cc5ccccc5C[C@H]3CN3CCN(C)CC3)OCO4)c3ccccc23)C2CCNCC2)cc1 [Example 98, bis-hydrochloride]"
experimental_value = 3.27

[[record]]
compound = "Cc1cc(C(=O)N(c2ccccc2)c2ccc(O)cc2)cn1-c1cc(Br)ccc1C(=O)N1Cc2ccccc2C[C@H]1CN1C[C@H]2CCC[C@H]2C1 [Example 38]"
experimental_value = 3.25


----------
# Test system: RS4;11 leukaemia tumour line
# ASSAY PROCEDURE: In vitro cytotoxicity, Microculture Tetrazolium Assay (MTT)
# Assay type: cell-based
# CONDITIONS: Homo sapiens; RS4;11 cells, 48 hours exposure
Counter-ions that a name gives are not always drawn.
Checkbox rule: IC50 lower than 100 nM = True; IC50 not lower than 100 nM = False.

[[record]]
molecule = "Cc1cc(C(=O)N(c2ccc(O)cc2)c2ccc3c(ccn3C)c2)cn1-c1cc2c(cc1C(=O)N1Cc3ccccc3C[C@H]1CN1CCOCC1)OCO2 [Example 109, hydrochloride]"
discrete_label = "False"

[[record]]
molecule = "Cc1cc(C(=O)N(c2ccc(O)cc2)c2ccc3c(ccn3C)c2)cn1-c1cc(Cl)ccc1C(=O)N1Cc2ccccc2C[C@H]1CN(C)C [Example 95, hydrochloride]"
discrete_label = "False"

[[record]]
molecule = "CNc1ccc(-n2nc(C(=O)N(c3ccccc3)c3ccccc3)c3ccccc32)c(C(=O)N2Cc3ccccc3C[C@H]2CN)c1"
discrete_label = "False"

[[record]]
molecule = "COc1ccc(C(=O)N2Cc3ccccc3C[C@H]2CN(C)C)c(-n2cc(C(=O)N(c3ccccc3)c3ccc(O)cc3)c3ccccc32)c1"
discrete_label = "False"

[[record]]
molecule = "Cc1cc(C(=O)N(c2ccccc2)c2ccc(O)cc2)cn1-c1cc2c(cc1C(=O)N1Cc3ccccc3C[C@H]1CN1CCOCC1)OCO2 [Example 108, hydrochloride]"
discrete_label = "False"

[[record]]
molecule = "CN1CCN(C[C@@H]2Cc3ccccc3CN2C(=O)c2cc3c(cc2-n2cc(C(=O)N(c4ccc(O)cc4)c4ccc(F)cc4)c4ccccc42)OCO3)CC1"
discrete_label = "True"

[[record]]
molecule = "Cc1cc(C(=O)N(c2ccccc2)c2ccc(O)cc2)cn1-c1ccc(OC(F)(F)F)cc1C(=O)N1Cc2ccccc2C[C@H]1CN1CCN(C)CC1"
discrete_label = "False"

[[record]]
molecule = "Cc1c(C(=O)N(c2ccc(O)cc2)c2cnc3c(c2)CCN3C)cn(-c2cc(Cl)ccc2C(=O)N2Cc3ccccc3C[C@H]2CN2CCOCC2)c1C.Cl [Example 210, hydrochloride]"
discrete_label = "True"

[[record]]
molecule = "O=C(c1cn(-c2cc3c(cc2C(=O)N2Cc4ccccc4C[C@H]2CN2CCCCC2)OCO3)c2ccccc12)N(c1ccccc1)c1ccc(O)cc1"
discrete_label = "False"

[[record]]
molecule = "Cc1cc(C(=O)N(c2ccc(O)cc2)c2ccc3[nH]ccc3c2)cn1-c1cc(Br)ccc1C(=O)N1Cc2ccccc2C[C@H]1CN1CCN(C2CCC2)CC1"
discrete_label = "False"

[[record]]
molecule = "Cc1cc(C(=O)N(c2ccc(O)cc2)c2ccc3c(ccn3C)c2)cn1-c1cc2c(cc1C(=O)N1Cc3ccccc3C[C@H]1CN1CCCC1)OCO2 [Example 105, hydrochloride]"
discrete_label = "False"

[[record]]
molecule = "CN1CCN(C[C@@H]2Cc3ccccc3CN2C(=O)c2cc3c(cc2-n2cc(C(=O)N(c4ccccc4)c4ccc(O)cc4)c4ccc(F)cc42)OCO3)CC1"
discrete_label = "False"

[[record]]
molecule = "NC[C@@H]1Cc2ccccc2CN1C(=O)c1ccccc1-n1nc(C(=O)N(c2ccccc2)c2ccccc2)c2ccccc21"
discrete_label = "False"

[[record]]
molecule = "Cc1cc(C(=O)N(c2ccc(O)cc2)c2ccc3c(ccn3C)c2)cn1-c1cc(Br)ccc1C(=O)N1Cc2ccccc2C[C@H]1CN1CCN(C)CC1 [Example 70, hydrochloride]"
discrete_label = "True"

[[record]]
molecule = "CN1CCN(C[C@@H]2Cc3ccccc3CN2C(=O)c2ccc(Cl)cc2-n2cc(C(=O)N(c3ccc(O)cc3)c3ccc(F)cc3)c3ccccc32)CC1"
discrete_label = "False"

[[record]]
molecule = "Cc1cc(C(=O)N(c2ccc(O)cc2)c2ccc3c(ccn3C)c2)cn1-c1cc2c(cc1C(=O)N1Cc3ccccc3C[C@H]1CN1CCOCC1)CCO2"
discrete_label = "False"


----------
Attribute: IC50
# Tested on: RS4;11 leukaemia tumour line
# ASSAY PROCEDURE: In vitro cytotoxicity, Microculture Tetrazolium Assay (MTT)
# Type: cell-based
# CONDITIONS: Homo sapiens; RS4;11 cells, 48 hours exposure
# Description: The cytotoxicity studies were carried out on the RS4;11 leukaemia tumour line. The cells are distributed onto microplates and exposed to the test compounds for 48 hours. The cell viability is then quantified by a colorimetric assay, the Microculture Tetrazolium Assay (Cancer Res., 1987, 47, 939-942).
Where a name gives a salt, the structure may show the parent alone.
ASSAY METRIC: IC50 (nM)

[[record]]
compound = "NC[C@@H]1Cc2ccccc2CN1C(=O)c1ccc(Cl)cc1-n1cc(C(=O)N(c2ccccc2)c2ccc(O)cc2)c2ccccc21"
unit_abbrev = "nM"
experimental_value = 450

[[record]]
compound = "COc1cc(-n2cc(C(=O)N(c3ccccc3)c3ccc(C)cc3)c3ccccc32)c(C(=O)N2Cc3ccccc3C[C@H]2CN2CCN(C)CC2)cc1O"
unit_abbrev = "nM"
experimental_value = 499

[[record]]
compound = "CN(C)C[C@@H]1Cc2ccccc2CN1C(=O)c1cc2c(cc1-n1cc(C(=O)N(c3ccccc3)c3ccc(O)cc3)c3ccccc31)OCO2 [Example 180, hydrochloride]"
unit_abbrev = "nM"
experimental_value = 210

[[record]]
compound = "NC[C@@H]1Cc2ccccc2CN1C(=O)c1cc2c(cc1-n1cc(C(=O)N(c3ccccc3)c3ccc(O)cc3)c3ccccc31)OCO2"
unit_abbrev = "nM"
experimental_value = 237

[[record]]
compound = "Cc1ccc(N(C(=O)c2cc(C)n(-c3cc4c(cc3C(=O)N3Cc5ccccc5C[C@H]3CN3CCN(C)CC3)OCO4)c2)c2ccc(O)cc2)cc1"
unit_abbrev = "nM"
experimental_value = 157

[[record]]
compound = "CN1CCN(C[C@@H]2Cc3ccccc3CN2C(=O)c2ccc(Br)cc2-n2cc(C(=O)N(c3ccc(O)cc3)c3ccc(F)cc3)c3ccccc32)CC1"
unit_abbrev = "nM"
experimental_value = 196

[[record]]
compound = "O=C(c1cn(-c2ccccc2C(=O)N2Cc3ccccc3C[C@H]2CO)c2ccccc12)N(c1ccccc1)c1ccc(O)cc1"
unit_abbrev = "nM"
experimental_value = 1200

[[record]]
compound = "COc1cc(-n2cc(C(=O)N(c3ccc(O)cc3)c3ccc4[nH]ccc4c3)c3ccccc32)c(C(=O)N2Cc3ccccc3C[C@H]2CN2CCN(C)CC2)cc1O"
unit_abbrev = "nM"
experimental_value = 798

[[record]]
compound = "Cc1cc(C(=O)N(c2ccc(O)cc2)c2ccc(Cl)cc2)cn1-c1cc(Br)ccc1C(=O)N1Cc2ccccc2C[C@H]1CN1CCN(C)CC1"
unit_abbrev = "nM"
experimental_value = 205

[[record]]
compound = "Cc1ccc(N(C(=O)c2cc(C)n(-c3cc(Br)ccc3C(=O)N3Cc4ccccc4C[C@H]3CN3CCN(C)CC3)c2)c2ccc(O)cc2)cc1"
unit_abbrev = "nM"
experimental_value = 207

[[record]]
compound = "CN1CCN(C[C@@H]2Cc3ccccc3CN2C(=O)c2cc3c(cc2-n2cc(C(=O)N(c4ccccc4)c4ccc(O)cc4)c4ccccc42)OC[C@H](COCc2ccccc2)O3)CC1"
unit_abbrev = "nM"
experimental_value = 68

[[record]]
compound = "CN1CCN(C[C@@H]2Cc3ccccc3CN2C(=O)c2cc3c(cc2-n2cc(C(=O)N(c4ccccc4)c4ccc(O)cc4)c4cc(F)ccc42)OCO3)CC1"
unit_abbrev = "nM"
experimental_value = 507

[[record]]
compound = "Cc1cc(C(=O)N(c2ccccc2)c2ccc(O)cc2)cn1-c1cc(O)ccc1C(=O)N1Cc2ccccc2C[C@H]1CN1CCOCC1"
unit_abbrev = "nM"
experimental_value = 759

[[record]]
compound = "Cc1cc(C(=O)N(c2ccc(O)cc2)c2ccc3c(c2)CCN3)cn1-c1cc2c(cc1C(=O)N1Cc3ccccc3C[C@H]1CN1CCOCC1)CCC2 [Example 110, hydrochloride]"
unit_abbrev = "nM"
experimental_value = 291

[[record]]
compound = "CCCCN(CCCC)C(=O)c1cn(-c2ccc(NC(=O)COc3ccccc3)cc2C(=O)N2Cc3ccccc3C[C@H]2CN2CCN(C)CC2)c2ccccc12"
unit_abbrev = "nM"
experimental_value = 2080

[[record]]
compound = "CN1CCN(C[C@@H]2Cc3ccccc3CN2C(=O)c2ccc(Br)cc2-n2cc(C(=O)N(c3ccc(O)cc3)c3ccc(Cl)cc3)c3ccccc32)CC1"
unit_abbrev = "nM"
experimental_value = 206

